Answer each item with its documented MIC.
# System: Escherichia coli
# assay_details: Antimicrobial activity against AcrAB-deficient Escherichia coli AG100AX harboring pBADomegaydhE plasmid containing Escherichia coli multidrug efflux pump YdhE after 18 to 24 hrs by two fold dilution method
# Type: functional
Value expressed in µg/mL; do not type the unit.

Supply MIC value. Item: CN(C)[C@@H]1C(O)=C(C(N)=O)C(=O)[C@@]2(O)C(O)=C3C(=O)c4c(O)cccc4[C@@](C)(O)[C@H]3C[C@@H]12 [TETRACYCLINE]
1.25

Supply MIC value. Item: C[n+]1ccc(-c2cc[n+](C)cc2)cc1.[Cl-].[Cl-] [PARAQUAT DICHLORIDE]
156

Supply MIC value. Item: Nc1ccc2cc3ccc(N)cc3nc2c1 [PROFLAVINE]
12.5

* * *

# System: Escherichia coli
# assay_details: Antimicrobial activity against AcrAB-deficient Escherichia coli AG100AX harboring pBADomeganorM plasmid containing Neisseria gonorrhoeae multidrug efflux pump NorM after 18 to 24 hrs by two fold dilution method
# Assay type: functional
Answer each item with its documented MIC.
Value expressed in µg/mL; do not type the unit.

Supply MIC value. Item: CN[C@H](CC(C)C)C(=O)N[C@H]1C(=O)N[C@@H](CC(N)=O)C(=O)N[C@H]2C(=O)N[C@H]3C(=O)N[C@H](C(=O)N[C@H](C(=O)O)c4cc(O)cc(O)c4-c4cc3ccc4O)[C@H](O)c3ccc(c(Cl)c3)Oc3cc2cc(c3O[C@@H]2O[C@H](CO)[C@@H](O)[C@H](O)[C@H]2O[C@H]2C[C@](C)(N)[C@H](O)[C@H](C)O2)Oc2ccc(cc2Cl)[C@H]1O [VANCOMYCIN]
250

Supply MIC value. Item: CCn1cc(C(=O)O)c(=O)c2ccc(C)nc21 [NALIDIXIC ACID]
0.625

Supply MIC value. Item: CCn1cc(C(=O)O)c(=O)c2cc(F)c(N3CCNCC3)cc21 [NORFLOXACIN]
0.032

Supply MIC value. Item: CN(C)c1ccc(O)c2c1C[C@H]1C[C@H]3[C@H](N(C)C)C(O)=C(C(N)=O)C(=O)[C@@]3(O)C(O)=C1C2=O [MINOCYCLINE]
0.625

Supply MIC value. Item: COc1ccc2cc3[n+](cc2c1OC)CCc1cc2c(cc1-3)OCO2.[Cl-] [BERBERINE CHLORIDE]
250

* * *

Answer each item with its documented MIC.
# Tested on: Escherichia coli
# assay_details: Antimicrobial activity against AcrAB-deficient Escherichia coli AG100AX harboring pBADomegaydhE plasmid containing Escherichia coli multidrug efflux pump YdhE after 18 to 24 hrs by two fold dilution method
# Format: functional
Value expressed in µg/mL; do not type the unit.

Supply MIC value. Item: CO[C@@H]1[C@@H](OC(N)=O)[C@@H](O)[C@H](Oc2ccc3c(O)c(NC(=O)c4ccc(O)c(CC=C(C)C)c4)c(=O)oc3c2C)OC1(C)C
3.12

Supply MIC value. Item: CCn1cc(C(=O)O)c(=O)c2cc(F)c(N3CCNCC3)nc21
0.063

Supply MIC value. Item: [Cl-].c1ccc([P+](c2ccccc2)(c2ccccc2)c2ccccc2)cc1 [TETRAPHENYLPHOSPHONIUM CHLORIDE]
25

Supply MIC value. Item: CN(C)c1ccc(C(=C2C=CC(=[N+](C)C)C=C2)c2ccc(N(C)C)cc2)cc1.[Cl-]
2.5

Supply MIC value. Item: CCn1cc(C(=O)O)c(=O)c2cc(F)c(N3CCNC(C)C3)c(F)c21 (configuration not stated)
0.016

Supply MIC value. Item: COc1ccc2cc3[n+](cc2c1OC)CCc1cc2c(cc1-3)OCO2.[Cl-] [BERBERINE CHLORIDE]
250

* * *

# Tested on: Escherichia coli
# assay_details: Antimicrobial activity against AcrAB-deficient Escherichia coli AG100AX harboring pBADomegaydhE plasmid containing Escherichia coli multidrug efflux pump YdhE after 18 to 24 hrs by two fold dilution method
# Type: functional
Answer each item with its documented MIC.
Value expressed in µg/mL; do not type the unit.

// output MIC; input CC/N=c1\cc2oc3cc(NCC)c(C)cc3c(-c3ccccc3C(=O)OCC)c-2cc1C.Cl [RHODAMINE 6G HYDROCHLORIDE] ; system Escherichia coli
12.5

// output MIC; input CCn1cc(C(=O)O)c(=O)c2cc(F)c(N3CCNCC3)cc21 ; system Escherichia coli
0.016

// output MIC; input O=C(N[C@H](CO)[C@H](O)c1ccc([N+](=O)[O-])cc1)C(Cl)Cl ; system Escherichia coli
0.625

// output MIC; input N#CC(C#N)=NNc1cccc(Cl)c1 [CARBONYL CYANIDE M-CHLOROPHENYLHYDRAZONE] ; system Escherichia coli
6.25

* * *

# assay_details: Binding affinity to Neisseria gonorrhoeae FA19 multidrug efflux protein NorM expressed in Escherichia coli AG100AX in presence of => 100 mM NaCl by fluorescence polarization assay
property: pKd
The value called pKd is obtained by taking minus log10 of the concentration in mol/L.

Supply pKd value. Item: CC/N=c1\cc2oc3cc(NCC)c(C)cc3c(-c3ccccc3C(=O)OCC)c-2cc1C.Cl [RHODAMINE 6G HYDROCHLORIDE]
5.60

* * *

# Test system: Escherichia coli
# assay_details: Antimicrobial activity against AcrAB-deficient Escherichia coli AG100AX harboring pBADomeganorM plasmid containing Neisseria gonorrhoeae multidrug efflux pump NorM after 18 to 24 hrs by two fold dilution method
# Type: functional
property: log10 of MIC (log10 of the value in µg/mL)
Remember, log10 of MIC, in µg/mL.

// output log10 of MIC; input [Cl-].c1ccc([P+](c2ccccc2)(c2ccccc2)c2ccccc2)cc1 [TETRAPHENYLPHOSPHONIUM CHLORIDE] ; system Escherichia coli
1.40

// output log10 of MIC; input C[n+]1ccc(-c2cc[n+](C)cc2)cc1.[Cl-].[Cl-] [PARAQUAT DICHLORIDE] ; system Escherichia coli
2.19

// output log10 of MIC; input Nc1ccc2cc3ccc(N)cc3nc2c1 ; system Escherichia coli
1.10

// output log10 of MIC; input CO[C@@H]1[C@@H](OC(N)=O)[C@@H](O)[C@H](Oc2ccc3c(O)c(NC(=O)c4ccc(O)c(CC=C(C)C)c4)c(=O)oc3c2C)OC1(C)C ; system Escherichia coli
0.49

// output log10 of MIC; input COc1cccc2c1C(=O)c1c(O)c3c(c(O)c1C2=O)C[C@@](O)(C(=O)CO)C[C@@H]3O[C@H]1C[C@H](N)[C@H](O)[C@H](C)O1 ; system Escherichia coli
0.80

// output log10 of MIC; input N#CC(C#N)=NNc1cccc(Cl)c1 [CARBONYL CYANIDE M-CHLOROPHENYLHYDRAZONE] ; system Escherichia coli
0.80

// output log10 of MIC; input CCn1cc(C(=O)O)c(=O)c2cc(F)c(N3CCNC(C)C3)c(F)c21 (stereo not drawn) ; system Escherichia coli
-1.49

// output log10 of MIC; input CCn1cc(C(=O)O)c(=O)c2cc(F)c(N3CCNCC3)nc21 ; system Escherichia coli
-1.20

// output log10 of MIC; input CC/N=c1\cc2oc3cc(NCC)c(C)cc3c(-c3ccccc3C(=O)OCC)c-2cc1C.Cl [RHODAMINE 6G HYDROCHLORIDE] ; system Escherichia coli
1.10

// output log10 of MIC; input CN(C)c1ccc(C(=C2C=CC(=[N+](C)C)C=C2)c2ccc(N(C)C)cc2)cc1.[Cl-] ; system Escherichia coli
0.40

// output log10 of MIC; input O=C(N[C@H](CO)[C@H](O)c1ccc([N+](=O)[O-])cc1)C(Cl)Cl ; system Escherichia coli
-0.20

// output log10 of MIC; input CC[n+]1c(-c2ccccc2)c2cc(N)ccc2c2ccc(N)cc21.[Br-] [HOMIDIUM BROMIDE] ; system Escherichia coli
1.19

// output log10 of MIC; input CN(C)[C@@H]1C(O)=C(C(N)=O)C(=O)[C@@]2(O)C(O)=C3C(=O)c4c(O)cccc4[C@@](C)(O)[C@H]3C[C@@H]12 ; system Escherichia coli
0.10

* * *

# target_entity: Multidrug resistance protein MdtK (Escherichia coli (strain K12))
# Sequence (P37340 whole entry): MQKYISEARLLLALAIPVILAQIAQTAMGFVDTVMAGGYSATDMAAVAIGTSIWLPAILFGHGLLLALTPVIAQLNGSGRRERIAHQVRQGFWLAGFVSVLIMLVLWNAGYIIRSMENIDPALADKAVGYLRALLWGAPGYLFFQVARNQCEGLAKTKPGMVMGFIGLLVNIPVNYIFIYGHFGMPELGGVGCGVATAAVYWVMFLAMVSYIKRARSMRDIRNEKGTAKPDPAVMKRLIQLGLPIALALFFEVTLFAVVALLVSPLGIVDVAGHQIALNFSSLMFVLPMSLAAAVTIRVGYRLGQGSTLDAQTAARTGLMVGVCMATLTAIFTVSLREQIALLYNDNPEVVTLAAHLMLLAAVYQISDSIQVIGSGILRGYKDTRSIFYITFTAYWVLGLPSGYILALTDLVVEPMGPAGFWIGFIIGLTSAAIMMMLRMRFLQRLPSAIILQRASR
# assay_details: Binding affinity to Escherichia coli K-12 multidrug efflux protein YdhE […] in presence of 0.02% DDM surfactant by fluorescence polarization assay
Answer each item with its documented pKd.
The value called pKd is obtained by taking minus log10 of the concentration in mol/L.

Supply pKd value. Item: CC/N=c1\cc2oc3cc(NCC)c(C)cc3c(-c3ccccc3C(=O)OCC)c-2cc1C.Cl [RHODAMINE 6G HYDROCHLORIDE]
5.52

Supply pKd value. Item: CCn1cc(C(=O)O)c(=O)c2cc(F)c(N3CCNCC3)cc21
4.01

Supply pKd value. Item: CC[n+]1c(-c2ccccc2)c2cc(N)ccc2c2ccc(N)cc21.[Br-] [HOMIDIUM BROMIDE]
5.01

Supply pKd value. Item: O=C(O)c1cn(C2CC2)c2cc(N3CCNCC3)c(F)cc2c1=O
4.04
